Numbers sourced from patent US20100311107A1.

# System: E. coli MG1655
# Format: cell-based, Escherichia coli
# Set-up: unit not given here
# CONDITION DESCRIPTION: Table 7, MHB medium
Numbered stars: 1 amine (or outer) side, 2 acyl side, 3 side chain; on linkers, the order of the positions; unused ones are H or OH. Bridge positions count the residues as written; N and C are the ends. Square brackets hold non-standard residues; d marks the D form. Peptide text beside a SMILES is read from it. I, II: the chains in the order shown. Actinocin(9to1) = Cc1c2oc3c(C)ccc(C(=O)[*:1])c3nc-2c(C(=O)[*:2])c(N)c1=O; NMeV = CN[C@H](C(=O)O)C(C)C; Sar = CNCC(=O)O
MEASURED PARAMETER: Minimal inhibitory concentrations (MIC90) MG1655
Number only, no unit.

Example compounds with recorded Minimal inhibitory concentrations (MIC90) MG1655:
{"columns": ["COMPOUND", "VALUE"],
 "data": [
  ["C[C@H]1[C@H](NC(=O)/C(=N\\OC(C)(C)C(=O)O)c2csc(N)n2)C(=O)N1S(=O)(=O)O", 0.1],
  ["COc1cccc2c1C(=O)c1c(O)c3c(c(O)c1C2=O)C[C@@](O)(C(C)=O)C[C@@H]3O[C@H]1C[C@H](N)[C@H](O)[C@H](C)O1", 200],
  ["CC[C@H]1OC(=O)[C@H](C)[C@@H](O[C@H]2C[C@@](C)(OC)[C@@H](O)[C@H](C)O2)[C@H](C)[C@@H](O[C@@H]2O[C@H](C)C[C@H](N(C)C)[C@H]2O)[C@](C)(O)C[C@@H](C)C(=O)[C@H](C)[C@@H](O)[C@]1(C)O", 25],
  ["Cc1c2oc3c(C)ccc(C(=O)N[C@@H]4C(=O)N[C@H](C(C)C)C(=O)N5CCC[C@H]5C(=O)N(C)CC(=O)N(C)[C@@H](C(C)C)C(=O)O[C@@H]4C)c3nc-2c(C(=O)N[C@@H]2C(=O)N[C@H](C(C)C)C(=O)N3CCC[C@H]3C(=O)N(C)CC(=O)N(C)[C@@H](C(C)C)C(=O)O[C@@H]2C)c(N)c1=O [Actinomycin D] (I: T[dV]P[Sar][NMeV] / II: T[dV]P[Sar][NMeV]; ester I:1-I:C, II:1-II:C; linker I:N-II:N via Actinocin(9to1))", 200],
  ["[H]/N=C(/N)N[C@H]1[C@H](O)[C@@H](O)[C@H](O[C@@H]2O[C@@H](C)[C@](O)(C=O)[C@H]2O[C@@H]2O[C@@H](CO)[C@H](O)[C@@H](O)[C@@H]2NC)[C@@H](N/C(N)=N\\[H])[C@@H]1O", 3.2]
]}

[ask] Can you look up the measured Minimal inhibitory concentrations (MIC90) MG1655 of `NC[C@H]1O[C@H](O[C@H]2[C@H](O)[C@@H](O[C@H]3O[C@H](CO)[C@@H](O)[C@H](N)[C@H]3O)[C@H](N)C[C@@H]2N)[C@H](N)C[C@@H]1O` for me?
[reply] 0.4
